test_name: Cytotoxicity in HepG2 cells, Resazurin assay
experimental_conditions: human, HepG2 cells, TOX-HepG2-4 d CC50 (μM), HepG2 cells incubated for 4 days, viability by Resazurin assay
measured_metric: CC50 at 4 days

Query block: For the molecule `C[C@H](O)[C@H]1C=Cc2c(cn(C)c2C(=O)Nc2ccnc(Br)c2)S(=O)(=O)N1` , give its measured CC50 at 4 days value.
Result block: > 25 µM

Query block: For the molecule Cc1cc(CC2(C)COc3c(cn(C)c3C(=O)Nc3ccc(F)c(C#N)c3)S(=O)(=O)N2)no1 (single isomer, unassigned) [Compound 220a] , give its measured CC50 at 4 days value.
Result block: > 25 µM

Query block: For the molecule CC(C)C(O)C1COc2c(cn(C)c2C(=O)Nc2ccc(F)c(F)c2)S(=O)(=O)N1 (single isomer, unassigned) [Compound 114a] , give its measured CC50 at 4 days value.
Result block: > 25 µM

Query block: For the molecule CC(NCC(F)(F)F)C1CCc2c(cn(C)c2C(=O)Nc2cc(F)c(F)c(F)c2)S(=O)(=O)N1 (single isomer, unassigned) [Compound 218c] , give its measured CC50 at 4 days value.
Result block: > 25 µM

Query block: For the molecule `Cn1cc2c(c1C(=O)Nc1ccc(F)c(C(F)F)c1)OC[C@H](Cc1cccnc1)NS2(=O)=O` , give its measured CC50 at 4 days value.
Result block: > 25 µM

Query block: For the molecule `C[C@H]1CCc2c(cn(C)c2C(=O)Nc2ccc(F)c(C#N)c2F)S(=O)(=O)N1` , give its measured CC50 at 4 days value.
Result block: > 25 µM

Query block: For the molecule Cn1cc2c(c1C(=O)Nc1ccc(F)c(F)c1)OCC(C)(CO)NS2(=O)=O (single isomer, unassigned) [Compound 203a] , give its measured CC50 at 4 days value.
Result block: > 25 µM

====

measured_metric: melting point (°C)
Dear colleague, please return just the value in °C, with no unit written.

Query block: For the molecule `C[C@H](O)[C@H]1CCc2c(cn(C)c2C(=O)Nc2ccc(F)c(Cl)c2)S(=O)(=O)N1` , give its measured melting point value.
Result block: 290.8

Query block: For the molecule Cn1cc2c(c1C(=O)Nc1ccc(F)c(Cl)c1)OCC(C)(Cc1cccnc1)NS2(=O)=O (stereo not shown) , give its measured melting point value.
Result block: 211.5

Query block: For the molecule Cn1cc2c(c1C(=O)Nc1ccc(F)c(Cl)c1)OC[C@H](C(O)C1CC1)NS2(=O)=O (stereo in doubt) , give its measured melting point value.
Result block: 215.8

Query block: For the molecule Cn1cc2c(c1C(=O)Nc1ccc(F)c(F)c1)OCC(C)(c1ncco1)NS2(=O)=O (single isomer, unassigned) [Compound 160a] , give its measured melting point value.
Result block: 239.5

====

test_name: Cytotoxicity in HepG2 cells, Resazurin assay
experimental_conditions: human, HepG2 cells, TOX-HepG2-4 d CC50 (μM), HepG2 cells incubated for 4 days, viability by Resazurin assay
Exercise: state measured CC50 at 4 days for each of the compounds provided.

Query block: For the compound Cn1cc2c(c1C(=O)Nc1ccc(F)c(F)c1)CC(O)CNS2(=O)=O (centres unmarked) , give its measured CC50 at 4 days value.
Result block: > 25 µM

Query block: For the compound `Cn1cc2c(c1C(=O)Nc1ccc(F)c(F)c1)OC[C@@H](C(C)(C)O)NS2(=O)=O` , give its measured CC50 at 4 days value.
Result block: > 25 µM

Query block: For the compound `Cc1cc(NC(=O)c2c3c(cn2C)S(=O)(=O)N[C@@H](C(C)(C)O)CO3)ccc1F` , give its measured CC50 at 4 days value.
Result block: > 25 µM

Query block: For the compound CC(C)C1CCc2c(cn(C)c2C(=O)Nc2ccc(F)c(F)c2)S(=O)(=O)N1 (centres unmarked) , give its measured CC50 at 4 days value.
Result block: > 25 µM

Query block: For the compound `Cn1cc2c(c1C(=O)Nc1ccc(F)c(F)c1)OCC1(COC1)NS2(=O)=O` , give its measured CC50 at 4 days value.
Result block: > 25 µM

Query block: For the compound `Cn1cc2c(c1C(=O)Nc1ccc(F)c(F)c1)OC[C@@H](C(C)(C)F)NS2(=O)=O` , give its measured CC50 at 4 days value.
Result block: > 25 µM

Query block: For the compound C[C@H]1CCc2c(cn(C)c2C(=O)Nc2ccc(F)c(C(F)F)c2)S(=O)(=O)N1 (single isomer, unassigned) , give its measured CC50 at 4 days value.
Result block: > 25 µM

Query block: For the compound `Cn1cc2c(c1C(=O)Nc1ccc(F)c(C#N)c1)OCC(C)(C)NS2(=O)=O` , give its measured CC50 at 4 days value.
Result block: > 25 µM

Query block: For the compound CC1CCOc2c(cn(C)c2C(=O)Nc2ccc(F)c(F)c2)S(=O)(=O)N1 (centres unmarked) , give its measured CC50 at 4 days value.
Result block: > 25 µM

Query block: For the compound CCC(O)[C@H]1COc2c(cn(C)c2C(=O)Nc2ccc(F)c(F)c2)S(=O)(=O)N1 (some centres unmarked) [Compound 130a] , give its measured CC50 at 4 days value.
Result block: > 25 µM

Query block: For the compound `Cn1cc2c(c1C(=O)Nc1ccc(F)c(F)c1)OC[C@@](C)(c1ccccn1)NS2(=O)=O` , give its measured CC50 at 4 days value.
Result block: > 25 µM

Query block: For the compound `Cc1cc(NC(=O)c2c3c(cn2C)S(=O)(=O)N[C@@H]([C@H](C)O)C=C3)ccc1F` , give its measured CC50 at 4 days value.
Result block: > 25 µM

Query block: For the compound Cc1cc(C2(C)COc3c(cn(C)c3C(=O)Nc3ccc(F)c(C(F)F)c3)S(=O)(=O)N2)no1 (racemic) , give its measured CC50 at 4 days value.
Result block: > 25 µM

Query block: For the compound `C[C@@H]1NS(=O)(=O)c2cn(C)c(C(=O)Nc3ccc(F)c(F)c3)c2O[C@H]1C` , give its measured CC50 at 4 days value.
Result block: > 25 µM

Query block: For the compound `Cn1cc2c(c1C(=O)Nc1ccc(F)c(F)c1)OC[C@H](Cc1cccnc1)NS2(=O)=O` , give its measured CC50 at 4 days value.
Result block: > 25 µM

Query block: For the compound CC1/C=C\Cc2c(cn(C)c2C(=O)Nc2ccc(F)c(F)c2)S(=O)(=O)N1 (centres unmarked) , give its measured CC50 at 4 days value.
Result block: > 25 µM

Query block: For the compound `CO[C@H](C)[C@H]1COc2c(cn(C)c2C(=O)Nc2ccc(F)c(F)c2)S(=O)(=O)N1` , give its measured CC50 at 4 days value.
Result block: > 25 µM

Query block: For the compound `C[C@H](O)[C@H]1CCc2c(cn(C)c2C(=O)Nc2ccc(F)c(Cl)c2)S(=O)(=O)N1` , give its measured CC50 at 4 days value.
Result block: > 25 µM

Query block: For the compound Cc1cc(NC(=O)c2c3c(cn2C)S(=O)(=O)N[C@@H](C)CC3)ccc1F (single isomer, unassigned) , give its measured CC50 at 4 days value.
Result block: > 25 µM

Query block: For the compound C[C@H]1CCc2c(cn(C)c2C(=O)Nc2ccnc(Br)c2)S(=O)(=O)N1 (single isomer, unassigned) , give its measured CC50 at 4 days value.
Result block: > 25 µM

Query block: For the compound Cn1cc2c(c1C(=O)Nc1ccc(F)c(F)c1)OCC(C)(c1ncco1)NS2(=O)=O (single isomer, unassigned) [Compound 160a] , give its measured CC50 at 4 days value.
Result block: > 25 µM

Query block: For the compound `CC(C)[C@H]1COc2c(ccc(F)c2C(=O)Nc2ccc(F)c(F)c2)S(=O)(=O)N1` , give its measured CC50 at 4 days value.
Result block: > 25 µM

Query block: For the compound Cn1cc2c(c1C(=O)Nc1ccc(F)c(C(F)F)c1)OC[C@H](C(O)C1CC1)NS2(=O)=O (some centres unmarked) [Compound 115a] , give its measured CC50 at 4 days value.
Result block: > 25 µM

Query block: For the compound `C[C@H](O)[C@H]1CCc2c(cn(C)c2C(=O)Nc2ccc(F)c(C#N)c2)S(=O)(=O)N1` , give its measured CC50 at 4 days value.
Result block: > 25 µM

Query block: For the compound C[C@H]1C=Cc2c(cn(C)c2C(=O)Nc2ccc(F)c(C(F)F)c2)S(=O)(=O)N1 (single isomer, unassigned) , give its measured CC50 at 4 days value.
Result block: > 25 µM

Query block: For the compound `Cn1cc2c(c1C(=O)Nc1ccc(F)c(C(F)F)c1)OC[C@@H](C(C)(C)O)NS2(=O)=O` , give its measured CC50 at 4 days value.
Result block: > 25 µM

Query block: For the compound Cn1cc2c(c1C(=O)Nc1ccc(F)c(F)c1)OCC(C)(Cc1cccnc1)NS2(=O)=O (single isomer, unassigned) [Compound 199a] , give its measured CC50 at 4 days value.
Result block: > 25 µM

Query block: For the compound `Cn1cc2c(c1C(=O)Nc1ccc(F)c(F)c1)OC[C@](C)(c1ccccn1)NS2(=O)=O` , give its measured CC50 at 4 days value.
Result block: > 25 µM

Query block: For the compound Cc1cccc(C2(C)COc3c(cn(C)c3C(=O)Nc3ccc(F)c(F)c3)S(=O)(=O)N2)n1 (single isomer, unassigned) [Compound 168a] , give its measured CC50 at 4 days value.
Result block: > 25 µM
